The reported measurements were obtained from ChEMBL document CHEMBL1201862.

system: HL-60; assay: NCI tumour cell line growth inhibition, 48 h
Calls of active or inactive are those of the source. Cut-off read from the data, not from the text of the source: active = GI50 up to about 1.1 µM and inactive = higher.
Allowed answers: active, inactive

Could you kindly confirm the outcome this assay logged for "COC(=O)[C@@H](NS(=O)(=O)CC12CCC(CC1)C2(C)C)C(C)(C)C" ?
inactive

Could you kindly confirm the outcome this assay logged for COc1ccc(OC)c(N2CC(N)C2=O)c1 (centres undefined) ?
inactive

Could you kindly confirm the outcome this assay logged for "COc1cc(C2C(C(=O)NCc3ccccc3)=C(C)NC(C)=C2C(=O)NCc2ccccc2)ccc1O" ?
inactive

Could you kindly confirm the outcome this assay logged for N#C/C(=C\c1ccc(O)c(O)c1)C(=O)NC1CCC(CC2CCC(NC(=O)/C(C#N)=C/c3ccc(O)c(O)c3)CC2)CC1 (centres undefined) ?
active

Could you kindly confirm the outcome this assay logged for "O=C(CCc1cc(-c2ccccc2)nc(S)n1)N(Cc1ccccc1)Cc1ccccc1" ?
inactive

Could you kindly confirm the outcome this assay logged for "CC(C)(Oc1ccccc1)C(=O)Sc1c(-c2ccccc2)c(=O)n(-c2ccccc2)c(=S)n1-c1ccccc1" ?
inactive

Could you kindly confirm the outcome this assay logged for "COc1cc(/C=C(\NC(=O)c2ccccc2)c2nc3cncnc3[nH]2)cc(OC)c1OC" ?
inactive

Could you kindly confirm the outcome this assay logged for "Cc1ccc(S(=O)(=O)N/N=C2\C=C[C@]3(CC2)C(=O)N(C)c2ccccc23)cc1" ?
inactive

Could you kindly confirm the outcome this assay logged for NC(C(=O)O)c1ccc(C(=O)O)cc1 (centres undefined) ?
inactive

Could you kindly confirm the outcome this assay logged for "C#CCN(Cc1ccc2nc(-c3ccccc3)c(Cl)nc2c1)c1cc(OC)c(OC)c(OC)c1" ?
inactive

More entries:
Could you kindly confirm the outcome this assay logged for "CC(C)(C)c1ccc(C(O)c2ccc(C(C)(C)C)cc2)cc1" ?
inactive

Could you kindly confirm the outcome this assay logged for "CCN(CC)Cc1ccc(C(=S)Nc2ccc(C)cc2)s1" ?
inactive

Could you kindly confirm the outcome this assay logged for Nc1ncc(/C=N/O)c(NCC2(CO)CC(CCc3ccccc3)C2)n1 (centres undefined) ?
inactive

Could you kindly confirm the outcome this assay logged for "Cn1c(=O)c2c(nc3n2CC(=O)N3CCCCl)n(C)c1=O" ?
inactive

Could you kindly confirm the outcome this assay logged for "CCN(CC)CCCNc1c2c(Cl)cc(Cl)cc2nc2nc(O)nc(C)c12" ?
inactive
